- ASSAY_METHOD_TEXT: Toxicity determined using Tadpole Narcosis Test
- TEST_SETTINGS: frog
EXPERIMENTAL_READOUT: Log C

compound_structure_string=CC(C)(C)O numeric_result=-1.429
compound_structure_string=CC(C)=O numeric_result=-0.924
compound_structure_string=CCCC(=O)OCC numeric_result=-2.367
compound_structure_string=CCCCO numeric_result=-1.463
compound_structure_string=c1ccccc1 numeric_result=-2.905
compound_structure_string=CCCCOC(C)=O numeric_result=-2.374
compound_structure_string=ClCCCl numeric_result=-2.374
compound_structure_string=c1ccc2ccccc2c1 numeric_result=-4.225

###

The entries below come with measured Log LC50 values attached.
- ASSAY_METHOD_TEXT: Toxicity determined using Konemann's Industrial Pollutants Toxicity Test
- TEST_SETTINGS: fish
EXPERIMENTAL_READOUT: Log LC50

molecule=CC(Cl)(Cl)Cl numeric_result=2.85
molecule="ClCCl [METHYLENE CHLORIDE]" numeric_result=3.54
molecule=Clc1cc(Cl)c(Cl)cc1Cl numeric_result=0.15
molecule=Clc1cc(Cl)cc(Cl)c1 numeric_result=1.26
molecule="CCCCCl [BUTYL CHLORIDE]" numeric_result=3.02
molecule=Cc1cc(Cl)c(Cl)cc1Cl numeric_result=0.94
molecule=Cc1cccc(C)c1 numeric_result=2.55
molecule=Clc1cccc(Cl)c1Cl numeric_result=1.11

###

- ASSAY_METHOD_TEXT: Toxicity determined using Golden Orfe Fish Test
- TEST_SETTINGS: leuciscus idus
Each item that follows carries a reported Log LC50.
EXPERIMENTAL_READOUT: Log LC50

compound=CCCO numeric_result=-1.972
compound=CC(Cl)(Cl)Cl numeric_result=-0.087
compound=Cc1cccc(O)c1 numeric_result=-0.694
compound="CCC(C)O (stereo not given)" numeric_result=-1.477
compound=CC(C)=O numeric_result=-2.259
compound=O=C1CCCC1 numeric_result=-1.359
compound=CCCCOCCCC numeric_result=-0.303
compound=O=C1CCCCC1 numeric_result=-0.66
compound=CC#N numeric_result=-2.227
compound=COc1ccccc1 numeric_result=-0.305
compound=CCCCO numeric_result=-1.432
compound="CCCCC(C)O (stereo not given)" numeric_result=-0.359
compound="CCC(C)(C)O [AMYLENE HYDRATE]" numeric_result=-0.907
compound=O=[N+]([O-])c1ccccc1 numeric_result=-0.263
compound="C1CCOC1 [TETRAHYDROFURAN]" numeric_result=-1.815

###

Listed next: entries and their corresponding Log LC50.
- ASSAY_METHOD_TEXT: Toxicity determined using Konemann's Industrial Pollutants Toxicity Test
- TEST_SETTINGS: fish
EXPERIMENTAL_READOUT: Log LC50

compound=ClC(Cl)C(Cl)Cl experimental_readout="Log LC50" numeric_result=2.34
compound=CCC(O)CC experimental_readout="Log LC50" numeric_result=4.05
compound=Clc1cc(Cl)c(Cl)c(Cl)c1 experimental_readout="Log LC50" numeric_result=0.57
compound=Cc1ccccc1C experimental_readout="Log LC50" numeric_result=2.52
compound=CCO experimental_readout="Log LC50" numeric_result=5.38
compound="CC(Cl)CCl (stereo not drawn)" experimental_readout="Log LC50" numeric_result=3.01
compound=Clc1ccccc1 experimental_readout="Log LC50" numeric_result=2.23
compound=Cc1ccccc1 experimental_readout="Log LC50" numeric_result=2.87

###

- ASSAY_METHOD_TEXT: Toxicity determined using Golden Orfe Fish Test
- TEST_SETTINGS: leuciscus idus
# maps each entry to its Log LC50
EXPERIMENTAL_READOUT: Log LC50

compound=CCOCC experimental_readout="Log LC50" numeric_result=-1.722
compound=CCCCCCO experimental_readout="Log LC50" numeric_result=-0.315
compound=CCCCCCCCO experimental_readout="Log LC50" numeric_result=-0.594
compound=OC1CCCC1 experimental_readout="Log LC50" numeric_result=-0.97
compound=Oc1ccccc1 experimental_readout="Log LC50" numeric_result=-0.256
compound=CC(C)O experimental_readout="Log LC50" numeric_result=-2.005
compound="CCCC(O)CC (stereo not drawn)" experimental_readout="Log LC50" numeric_result=-0.363
compound=CCCCCCCO experimental_readout="Log LC50" numeric_result=-0.163

###

- ASSAY_METHOD_TEXT: Toxicity determined using Tadpole Narcosis Test
- TEST_SETTINGS: frog
One threshold, -2, splits the recorded Log C values: lower ones are met, equal or higher ones are not met.

molecule=c1ccc2c(c1)ccc1ccccc12 classification=met
molecule="CCC(C)(C)O [AMYLENE HYDRATE]" classification="not met"
molecule="CCCCCCCCO [OCTANOL]" classification=met
molecule="CCOCC [ETHER]" classification="not met"
molecule="CCC(C)O (stereo not drawn) [BUTANOL]" classification="not met"
molecule="ClC(Cl)Cl [CHLOROFORM]" classification=met
molecule="CCO [ALCOHOL]" classification="not met"
molecule="CCOC(C)=O [ETHYL ACETATE]" classification="not met"
molecule="CCC(C)=O [BUTANONE]" classification="not met"
molecule="COC=O [FORMIC ACID METHYL ESTER]" classification="not met"
molecule="CCCC(C)O (stereo not drawn) [2-PENTANOL]" classification="not met"
molecule="COc1ccccc1 [ANISOLE]" classification=met
molecule="CCOC(=O)CC [ETHYL PROPIONATE]" classification="not met"
molecule=CCCC(C)=O classification="not met"
molecule="C[N+](=O)[O-] [NITROMETHANE]" classification="not met"
molecule="CC(=O)c1ccccc1 [ACETOPHENONE]" classification=met
molecule=CCC(=O)CC classification="not met"
molecule="CO [METHYL ALCOHOL]" classification="not met"
molecule="CBr [BROMOMETHANE]" classification=met
molecule="CCCl [ETHYL CHLORIDE]" classification="not met"
molecule="CCCO [PROPANOL]" classification="not met"
molecule=CCOC(=O)C(C)C classification=met
molecule=CCCCC(=O)OCC classification=met
molecule="CCOC=O [ETHOXYCARBONYL GROUP]" classification="not met"
molecule="Cc1ccccc1C [O-XYLENE]" classification=met
molecule=C=CCCC classification=met
molecule="CC(C)O [ISOPROPYL ALCOHOL]" classification="not met"
molecule="CC(=O)OCC(C)C [ACETIC ACID ISOBUTYL ESTER]" classification=met
molecule=CCCCOC(=O)CCCC classification=met
molecule="Cc1ccc(C(C)C)c(O)c1 [THYMOL]" classification=met
molecule="CCCCC [PENTANE]" classification=met
molecule="CCCCCOC(C)=O [ACETIC ACID PENTYL ESTER]" classification=met

###

- ASSAY_METHOD_TEXT: The toxicity of compound was determined using Konemann's Industrial Pollutants Toxicity Test
EXPERIMENTAL_READOUT: Log LC50

compound_structure_string=CC(C)=O experimental_readout="Log LC50" result=5.04
compound_structure_string=CCOCC experimental_readout="Log LC50" result=4.46
compound_structure_string=c1ccccc1 experimental_readout="Log LC50" result=2.91
compound_structure_string=CC(C)O experimental_readout="Log LC50" result=5.07

###

- ASSAY_METHOD_TEXT: Toxicity determined using Golden Orfe Fish Test
- TEST_SETTINGS: leuciscus idus
EXPERIMENTAL_READOUT: Log LC50

compound_structure_string=ClC=C(Cl)Cl experimental_readout="Log LC50" numeric_result=-0.293
compound_structure_string=CC(C)CO experimental_readout="Log LC50" numeric_result=-1.43
compound_structure_string=c1ccccc1 experimental_readout="Log LC50" numeric_result=-0.417
compound_structure_string=CCC(C)=O experimental_readout="Log LC50" numeric_result=-1.663
